molecular target: Estrogen receptor beta (Homo sapiens, UniProt Q92731); test: Antagonist activity at ERbeta in human HEC1 cells assessed as inhibition of estrogen-induced transcriptional activity after 24 hrs by reporter gene assay
Sequence (Q92731 whole entry): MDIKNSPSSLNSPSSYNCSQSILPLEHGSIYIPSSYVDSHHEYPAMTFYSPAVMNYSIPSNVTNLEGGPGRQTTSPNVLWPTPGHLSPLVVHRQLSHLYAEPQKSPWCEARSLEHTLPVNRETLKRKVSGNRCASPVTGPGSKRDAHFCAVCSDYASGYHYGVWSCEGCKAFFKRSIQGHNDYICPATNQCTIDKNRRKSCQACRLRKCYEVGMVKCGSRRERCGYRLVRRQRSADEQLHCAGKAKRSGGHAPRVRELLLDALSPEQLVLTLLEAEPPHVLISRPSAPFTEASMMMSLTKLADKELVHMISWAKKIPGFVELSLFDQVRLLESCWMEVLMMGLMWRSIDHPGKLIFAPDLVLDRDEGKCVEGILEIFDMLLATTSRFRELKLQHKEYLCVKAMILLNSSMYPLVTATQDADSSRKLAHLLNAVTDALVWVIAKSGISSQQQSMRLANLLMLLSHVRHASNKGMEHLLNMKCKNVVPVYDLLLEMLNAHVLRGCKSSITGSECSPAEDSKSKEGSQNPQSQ
valueKind: IC50

Request: Determine from records and report IC50 for CC(C)CNc1cc(CCc2ccccc2)nc(NCC(C)C)n1
Response: > 1000 µM

Request: Given CC(C)CNc1cc(NCc2ccccc2)nc(NCC(C)C)n1 , respond with its IC50.
Response: > 1000 µM

Request: Look up and state reported IC50 for CC(C)CCc1cc(NCC(C)C)nc(NCC(C)C)n1
Response: > 1000 µM

----------
target: Estrogen receptor (Homo sapiens, UniProt P03372); experiment: Antagonist activity at ERalpha in human HEC1 cells assessed as inhibition of estrogen-induced transcriptional activity after 24 hrs by reporter gene assay; type: functional, cell-based, HEC-1
Listing of entries alongside the reported IC50.

Example results:
1) CC(C)CCc1cc(CCC(C)C)nc(NCc2ccccc2)n1 ... > 1000 µM
2) CC(C)COc1cc(CCc2ccccc2)nc(OCC(C)C)n1 ... > 1000 µM
3) c1ccc(CCc2cc(NCc3ccccc3)nc(NCc3ccccc3)n2)cc1 ... > 1000 µM
4) c1ccc(CCc2cc(OCc3ccccc3)nc(OCc3ccccc3)n2)cc1 ... > 1000 µM
5) c1ccc(COc2cc(OCc3ccccc3)nc(OCc3ccccc3)n2)cc1 ... > 1000 µM

Request: Determine from records and report IC50 for CC(C)CNc1nc(/C=C/c2ccccc2)cc(NCc2ccccc2)n1
Response: 9.8 µM

----------
# Lookup of reported pKi keyed by entry
biological target: Estrogen receptor (Homo sapiens); experiment: Binding affinity to ERalpha assessed as inhibition of fluorescein-labeled nuclear receptor domain of steroid receptor coactivator 3 by TR-FRET assay
pKi: −log10 of the molar value.

Examples with answers:
1) c1ccc(CCc2cc(NCc3cccc4ccccc34)nc(NCc3ccccc3)n2)cc1 ... < 3.00
2) CC(C)CCc1cc(SCC(C)C)nc(SCC(C)C)n1 ... < 3.00
3) CC(C)CNc1cc(/C=C/c2ccccc2)nc(N(C)CC(C)C)n1 ... < 3.00
4) CC(C)CNc1nc(CCc2ccccc2)cc(NCc2ccccc2)n1 ... 5.77
5) CC(C)CCc1cc(S(=O)(=O)CC(C)C)nc(S(=O)(=O)CC(C)C)n1 ... < 3.00

Request: Return reported pKi. Input compound: CC(C)CCc1cc(NCC(C)C)nc(S(=O)(=O)CC(C)C)n1
Response: < 3.00

----------
molecular target: Estrogen receptor (Homo sapiens); experiment: Antagonist activity at ERalpha in human HEC1 cells assessed as inhibition of estrogen-induced transcriptional activity after 24 hrs by reporter gene assay; type: functional, cell-based, HEC-1
valueKind: IC50 (µM)
Give the quantity in µM, number only.

1. CC(C)CNc1cc(/C=C/c2ccccc2)nc(NCc2ccccc2)n1 ... 12

With those in mind, consider the next molecule.
Request: Specify measured IC50 for CC(C)CCc1cc(NCC(C)C)nc(NCc2ccccc2)n1 .
Response: 1.8

----------
In this section we review reported Ki values for a set of compounds.
molecular target: Estrogen receptor (Homo sapiens, UniProt P03372); experiment: Binding affinity to ERalpha assessed as inhibition of fluorescein-labeled nuclear receptor domain of steroid receptor coactivator 3 by TR-FRET assay

1. CC(C)CNc1nc(/C=C/c2ccccc2)cc(NCc2ccccc2)n1 ... 16 µM
2. CC(C)CCc1cc(N(Cc2cccc3ccccc23)C(=O)OC(C)(C)C)nc(NCC(C)C)n1 ... > 1000 µM
3. CC(C)COc1cc(/C=C/c2ccccc2)nc(OCC(C)C)n1 ... > 1000 µM
4. CC(C)COc1cc(CCc2ccccc2)nc(OCC(C)C)n1 ... > 1000 µM
5. c1ccc(CCc2cc(NCc3cccc4ccccc34)nc(NCc3cccc4ccccc34)n2)cc1 ... > 1000 µM

Request: Using the record for c1ccc(CNc2cc(CCc3cccc4ccccc34)nc(NCc3ccccc3)n2)cc1 , state its measured Ki.
Response: > 1000 µM

Request: Complete the entry with Ki for O=S(=O)(Cc1ccccc1)c1cc(CCc2ccccc2)nc(S(=O)(=O)Cc2ccccc2)n1
Response: > 1000 µM

Request: Give recorded Ki. CC(C)CCc1cc(NCC(C)C)nc(N(C)CC(C)C)n1
Response: 7.2 µM

Request: Identify measured Ki associated with CC(C)COc1cc(OCC(C)C)nc(OCC(C)C)n1
Response: > 1000 µM

Request: Fill in reported Ki for this entry: C(=C\c1cc(NCc2cccc3ccccc23)nc(NCc2cccc3ccccc23)n1)/c1ccccc1
Response: > 1000 µM

----------
biological target: Estrogen receptor (Homo sapiens, UniProt P03372); assay: Antagonist activity at ERalpha in human HEC1 cells assessed as inhibition of estrogen-induced transcriptional activity after 24 hrs by reporter gene assay; type: functional, cell-based, HEC-1
valueKind: IC50 (µM)
Please give a number only; it is taken to be in µM.

Worked cases, answers included:
1. CC(C)CNc1cc(CCc2cccc3ccccc23)nc(NCC(C)C)n1 ... 2.1
2. CC(C)CCc1cc(NCc2ccccc2)nc(NCc2ccccc2)n1 ... 8.3

Request: For the compound CC(C)CNc1cc(CCc2ccccc2)nc(NCC(C)C)n1 , report IC50.
Response: 2.1

Request: Provide only the value of recorded IC50 for CC(C)CCc1cc(NCc2ccccc2)nc(NCC(C)C)n1
Response: 5.8

Request: # return recorded IC50 for input CC(C)CNc1nc(CCc2ccccc2)cc(NCc2ccccc2)n1
Response: 1.9

----------
Each entry below carries its reported pIC50.
Molecular target: UniProtKB P03372
Sequence (P03372 whole entry): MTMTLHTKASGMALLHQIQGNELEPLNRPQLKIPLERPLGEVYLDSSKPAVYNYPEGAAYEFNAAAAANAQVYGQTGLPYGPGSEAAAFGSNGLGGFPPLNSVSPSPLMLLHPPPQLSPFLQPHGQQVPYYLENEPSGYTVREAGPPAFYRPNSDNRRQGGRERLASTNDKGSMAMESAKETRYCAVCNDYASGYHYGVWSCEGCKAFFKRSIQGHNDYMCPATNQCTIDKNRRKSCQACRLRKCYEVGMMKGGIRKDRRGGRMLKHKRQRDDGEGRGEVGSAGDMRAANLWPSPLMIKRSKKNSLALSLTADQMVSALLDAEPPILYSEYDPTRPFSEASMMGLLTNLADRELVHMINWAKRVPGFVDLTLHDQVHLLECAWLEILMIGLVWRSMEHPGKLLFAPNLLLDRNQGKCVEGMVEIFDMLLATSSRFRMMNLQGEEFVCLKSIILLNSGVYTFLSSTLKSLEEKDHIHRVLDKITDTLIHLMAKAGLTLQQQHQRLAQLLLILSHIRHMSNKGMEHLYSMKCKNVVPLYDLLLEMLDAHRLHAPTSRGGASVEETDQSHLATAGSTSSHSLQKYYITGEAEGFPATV
Assay: Antagonist activity at ERalpha in human HEC1 cells assessed as inhibition of estrogen-induced transcriptional activity after 24 hrs by reporter gene assay
Type: functional, cell-based, HEC-1
pIC50: −log10 of the molar value.

Observe how each entry below is paired with its result.
1. CC(C)CCc1cc(OCc2ccccc2)nc(OCc2ccccc2)n1 ... < 3.00
2. C(=C\c1cc(/C=C/c2ccccc2)nc(NCc2ccccc2)n1)/c1ccccc1 ... < 3.00
3. CC(C)CNc1nc(/C=C/c2ccccc2)cc(N(C)CC(C)C)n1 ... < 3.00
4. CC(C)CNc1nc(/C=C/c2ccccc2)cc(/C=C/c2ccccc2)n1 ... < 3.00
5. c1ccc(CSc2cc(SCc3ccccc3)nc(SCc3ccccc3)n2)cc1 ... < 3.00

# input for lookup
Request: // Input: CC(C)CCc1cc(NCC(C)C)nc(N(C)CC(C)C)n1 . Output its pIC50 only.
Response: 5.01

----------
biological target: Estrogen receptor (Homo sapiens); experiment: Antagonist activity at ERalpha in human HEC1 cells assessed as inhibition of estrogen-induced transcriptional activity after 24 hrs by reporter gene assay; assay type: functional, cell-based, HEC-1
pIC50: −log10 of the molar value.
valueKind: pIC50

Known pIC50 results, listed for orientation:
1) CC(C)CCc1cc(NCc2cccc3ccccc23)nc(NCc2ccccc2)n1 ... < 3.00
2) c1ccc(CCc2cc(CCc3ccccc3)nc(NCc3cccc4ccccc34)n2)cc1 ... < 3.00

Request: Supply measured pIC50 of c1ccc2c(CCc3cc(NCc4cccc5ccccc45)nc(NCc4cccc5ccccc45)n3)cccc2c1 in your reply.
Response: < 3.00

The measurements presented in this section are drawn from ChEMBL document CHEMBL1140106.
